System: AVEFA
Assay: Post-emergence herbicidal action against AVEFA
Assay type: in vivo, Avena fatua
Settings: Avena fatua, 504 h, 20 g/ha, visual assessment about 3 weeks after treatment, 100% = plants have died, 0% = like control plants
assay endpoint: pest or weed control at 20 g/ha

Quick one: pest or weed control at 20 g/ha of CCn1nnnc1NC(=O)c1ccc(Cl)c(C(=O)NC2CC2)c1Br ?
90%

Using the record for CCNC(=O)c1c(C(F)F)ccc(C(=O)Nc2nnnn2C)c1SC , report its pest or weed control at 20 g/ha.
80%

Which measured pest or weed control at 20 g/ha value corresponds to Cc1c(C(=O)Nc2nnnn2C)ccc(C(F)(F)F)c1C(=O)NCC(F)(F)F ?
90%

So what's the measured pest or weed control at 20 g/ha for this one? CCc1c(C(=O)Nc2nnnn2C)ccc(C(F)(F)F)c1C(=O)NC1CC1
90%

Consider the compound CNC(=O)c1c(C(F)F)ccc(C(=O)Nc2nnnn2C)c1Cl and give its measured pest or weed control at 20 g/ha.
90%

Fill in: pest or weed control at 20 g/ha of CCn1nnnc1NC(=O)c1ccc(C(F)(F)F)c(C(N)=O)c1Cl is ___
80%

For the compound shown here, Cn1nnnc1NC(=O)c1ccc(Cl)c(C(=O)NC2CC2)c1Br , give the reported pest or weed control at 20 g/ha.
80%

Quick check: pest or weed control at 20 g/ha of CCn1nnnc1NC(=O)c1ccc(C(F)(F)F)c(C(=O)NC2CC2)c1Cl ?
80%

Given the compound CCn1nnnc1NC(=O)c1ccc(Cl)c(C(=O)NC2CC2)c1Cl , what is its reported pest or weed control at 20 g/ha?
100%
